Parameter: Plant response rating, Soybean. Scope: all listed entries.
- Tested on: soybean
- Test Summary: Test C pre-/postemergence herbicide test
- Format: in vivo, Glycine max
- Test Context: 500 g ai/ha; scale 0 to 100 (0 no effect, 100 complete control); visual, 12 to 14 days; preemergence
# respond with the number and nothing more

These recorded examples may help you get a feel for the data.
{"Compound": "CCN(CC)C(=O)c1cccc(NC(=O)c2nn(C(C)(C)C)nc2C)c1", "Plant response rating, Soybean": 90}
{"Compound": "CCc1nn(C(C)(C)CC)nc1C(=O)Nc1cccc(C(=O)N(C)C)c1", "Plant response rating, Soybean": 90}
{"Compound": "CCNC(=O)c1cccc(NC(=O)c2nn(C(C)(C)CC)nc2CC)c1", "Plant response rating, Soybean": 10}

Task: Determine reported Plant response rating, Soybean for Cc1nn(C(C)(C)C)nc1C(=O)Nc1cccc(C(=O)N(C)C)c1 ; test system: soybean.
Output: 100

Task: Determine reported Plant response rating, Soybean for CCN1N=C(C(C)(C)C)CC1C(=O)Nc1cc(C(=O)N2CCCC2)ccc1F (racemic) ; test system: soybean.
Output: 80

====

- System: rice
- Test Summary: Test B pre-/postemergence herbicide test
- Format: in vivo, Oryza sativa
- Test Context: 500 g ai/ha; visual rating 0-100, 0 no effect, 100 complete control; preemergence
Parameter: Plant response rating, Rice. Scope: all listed entries.
# respond with the number and nothing more

These recorded examples may help you get a feel for the data.
{"Compound": "CCc1nn(C(C)(C)C)cc1C(=O)Nc1cccc(C(C)=NO)c1 [Compound 188]", "Tested On": "rice", "Plant response rating, Rice": 70}
{"Compound": "CCc1nn(C(C)(C)C)cc1C(=O)Nc1cc(C(=O)NC)ccc1F [Compound 194]", "Tested On": "rice", "Plant response rating, Rice": 70}
{"Compound": "C=CCNC(=O)c1cccc(NC(=O)c2sc(C(C)(C)C)nc2C)c1 [Compound 202]", "Tested On": "rice", "Plant response rating, Rice": 30}
{"Compound": "C=CCN(C)C(=O)c1cccc(NC(=O)c2cc(C(C)(C)C)nn2CC)n1 [Compound 163]", "Tested On": "rice", "Plant response rating, Rice": 80}

# context switch: different compound, same Plant response rating, Rice
Task: Consider the compound C#CCN(C)C(=O)c1ccnc(NC(=O)c2cc(C(C)(C)C)nn2CC)c1 [Compound 160] and give its recorded Plant response rating, Rice.
Output: 80

====

- Tested on: blackgrass
- Test Summary: Test B postemergence herbicide test
- Assay type: in vivo, Alopecurus myosuroides
- Test Context: postemergence, 500 g ai/ha; visual rating, scale 0 (no effect) to 100 (complete control)
Readout Name: Blackgrass plant response rating
# respond with the number and nothing more

These recorded examples may help you get a feel for the data.
{"Compound": "CCn1nc(C(C)(C)C)cc1C(=O)Nc1nccc(OC)n1 [Compound 165]", "Blackgrass plant response rating": 0}
{"Compound": "C=CCNC(=O)c1cccc(NC(=O)c2sc(C(C)(C)C)nc2C)c1 [Compound 202]", "Blackgrass plant response rating": 0}
{"Compound": "CCc1nc(C(C)(C)C)sc1C(=O)Nc1cc(C(=O)N(C)CC)ccc1F [Compound 231]", "Blackgrass plant response rating": 30}
{"Compound": "CCn1nc(C(C)(C)C)cc1C(=O)Nc1cccc(S(C)(=O)=O)c1 [Compound 133]", "Blackgrass plant response rating": 10}
{"Compound": "CCN(C)C(=O)c1cccc(NC(=O)c2sc(C(C)(C)C)nc2C)c1 [Compound 227]", "Blackgrass plant response rating": 30}

# context switch: different compound, same Blackgrass plant response rating
Task: Consider the compound CCn1nc(C(C)(C)C)cc1C(=O)Nc1cc(C(=O)N2CCCC2)ccc1F [Compound 242] and give its recorded Blackgrass plant response rating.
Output: 20

====

- Tested on: pigweed
- Test Summary: Test B pre-/postemergence herbicide test
- Type: in vivo, Amaranthus retroflexus
- Test Context: postemergence, 125 g ai/ha; scale 0 to 100
Parameter: Pigweed plant response rating. Scope: all listed entries.
# respond with the number and nothing more

{"Smiles Repr": "C=CCN(CC=C)C(=O)c1ccc(F)c(NC(=O)c2cc(C(C)(C)C)nn2CC)c1", "Pigweed plant response rating": 50}
{"Smiles Repr": "CCOC(=O)c1ccnc(NC(=O)c2nn(C(C)(C)C)nc2C)c1", "Pigweed plant response rating": 0}
{"Smiles Repr": "C=CCN(CC=C)C(=O)c1cccc(NC(=O)c2nn(C(C)(C)C)nc2C)n1", "Pigweed plant response rating": 0}

# context switch: different compound, same Pigweed plant response rating
Task: Determine reported Pigweed plant response rating for CCN(CC)C(=O)c1cccc(NC(=O)c2nn(C(C)(C)C)nc2C)c1 ; test system: pigweed.
Output: 70

====

Parameter: Plant response rating, Velvetleaf. Scope: all listed entries.
- Test system: velvetleaf
- Test Summary: Test C pre-/postemergence herbicide test
- Format: in vivo, Abutilon theophrasti
- Test Context: 62 g ai/ha; preemergence; scale 0 to 100

These recorded examples may help you get a feel for the data.
{"Compound": "CCn1nc(C2(C)CC2)cc1C(=O)Nc1cccc(C(=O)N2CC=CC2)c1", "Tested On": "velvetleaf", "Result": 0}
{"Compound": "CCc1nc(C(C)(C)C)sc1C(=O)Nc1cccc(C(=O)NCC2CC2)n1", "Tested On": "velvetleaf", "Result": 0}

Task: Consider the compound CCN(CC)C(=O)c1cccc(NC(=O)c2nn(C(C)(C)C)nc2C)c1 and give its recorded Plant response rating, Velvetleaf.
Output: 90

====

- Tested on: barnyardgrass
- Test Summary: Test A pre-/postemergence herbicide test
- Assay type: in vivo, Echinochloa crus-galli
- Test Context: Postemergence, 2000 g ai/ha; 0 to 100 scale, 0 no effect, 100 complete control
Parameter: Plant response rating, Barnyardgrass. Scope: all listed entries.
# respond with the number and nothing more

These recorded examples may help you get a feel for the data.
{"Smiles Repr": "C=CCNC(=O)c1cccc(NC(=O)c2sc(C(C)(C)C)nc2C)c1", "Plant response rating, Barnyardgrass": 80}
{"Smiles Repr": "CCn1nc(C(C)(C)C)cc1C(=O)Nc1cc(C(N)=O)ccc1F", "Plant response rating, Barnyardgrass": 30}

# context switch: different compound, same Plant response rating, Barnyardgrass
Task: Consider the compound CC(=NO)c1cccc(NC(=O)c2cc(C(C)(C)C)nn2C)c1 and give its recorded Plant response rating, Barnyardgrass.
Output: 75

====

Parameter: Blackgrass plant response rating. Scope: all listed entries.
- System: blackgrass
- Test Summary: Test B postemergence herbicide test
- Format: in vivo, Alopecurus myosuroides
- Test Context: postemergence, 125 g ai/ha; visual rating, scale 0 (no effect) to 100 (complete control)
# respond with the number and nothing more

These recorded examples may help you get a feel for the data.
{"Smiles Repr": "C=CCN(C)C(=O)c1cccc(NC(=O)c2cc(C(C)(C)C)nn2CC)n1", "Blackgrass plant response rating": 10}
{"Smiles Repr": "CCN(CC)C(=O)c1cc(NC(=O)c2cc(C(C)(C)C)nn2CC)ccc1C", "Blackgrass plant response rating": 10}
{"Smiles Repr": "C=CCn1nc(C(C)(C)C)cc1C(=O)Nc1cccc(C(C)=NO)c1", "Blackgrass plant response rating": 0}
{"Smiles Repr": "CCn1nc(C(C)(C)C)cc1C(=O)Nc1cc(C#N)ccc1F", "Blackgrass plant response rating": 0}
{"Smiles Repr": "CCn1nc(C(C)(C)C)cc1C(=O)Nc1cccc(C(=O)NOC)c1", "Blackgrass plant response rating": 10}
{"Smiles Repr": "CCCc1nn(C(C)(C)C)cc1C(=O)Nc1cccc(C(=O)N(CC)CC)c1", "Blackgrass plant response rating": 0}

Task: Consider the molecule CCn1nc(C(C)(C)C)cc1C(=O)Nc1nc(C(=O)N(C)C)ccc1F and give its recorded Blackgrass plant response rating.
Output: 10

Task: Consider the molecule CCC(=NO)c1cccc(NC(=O)c2cc(C(C)(C)C)nn2C)c1 and give its recorded Blackgrass plant response rating.
Output: 0

Task: Consider the molecule CCn1nc(C(C)(C)C)cc1C(=O)Nc1cccc(C(=O)N(C)CC#N)n1 and give its recorded Blackgrass plant response rating.
Output: 20

Task: Consider the molecule CCN(CC)C(=O)c1cccc(NC(=O)c2cc(C(C)(C)C)nn2CC)n1 and give its recorded Blackgrass plant response rating.
Output: 10

Task: Consider the molecule CCCOC(=O)c1cc(NC(=O)c2cc(C(C)(C)C)nn2CC)c(F)cc1F and give its recorded Blackgrass plant response rating.
Output: 20

====

Parameter: Plant response rating, Crabgrass, Large. Scope: all listed entries.
- Test system: large crabgrass
- Test Summary: Test C pre-/postemergence herbicide test
- Type: in vivo, Digitaria sanguinalis
- Test Context: postemergence, 125 g ai/ha; scale 0 to 100
# respond with the number and nothing more

These recorded examples may help you get a feel for the data.
{"Smiles Repr": "CCn1nc(C(C)(C)C)cc1C(=O)Nc1ccc(F)c(C(=O)NCCF)c1", "Plant response rating, Crabgrass, Large": 0}
{"Smiles Repr": "C=CCOC(=O)c1cccc(NC(=O)c2cc(C(C)(C)C)nn2CC)c1", "Plant response rating, Crabgrass, Large": 5}
{"Smiles Repr": "CCn1nc(C(C)(C)C)cc1C(=O)Nc1cccc(C#N)c1", "Plant response rating, Crabgrass, Large": 0}

# context switch: different compound, same Plant response rating, Crabgrass, Large
Task: Determine reported Plant response rating, Crabgrass, Large for CCn1nc(C(C)(C)C)cc1C(=O)Nc1cccc(OC(F)(F)F)c1 ; test system: large crabgrass.
Output: 80
